target_or_test_system: T1, 4H2944-AA
T1 chain: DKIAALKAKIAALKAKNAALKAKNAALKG
assay_protocol: two-hybrid library CCmax;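 further: natural log of median RNA to DNA barcode read ratio; higher means stronger binding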
protocol_conditions: mean of both orientations
measure_name: interaction score

1. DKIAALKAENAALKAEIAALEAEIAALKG [4H2754-AA] = -1.87
2. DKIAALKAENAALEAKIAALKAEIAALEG [4H2729-AA] = -1.66
3. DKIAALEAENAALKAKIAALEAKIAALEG [4H2277-AA] = -1.56
4. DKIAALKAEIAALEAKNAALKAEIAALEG [4H2617-AA] = -0.31
5. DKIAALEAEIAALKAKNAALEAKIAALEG [4H2165-AA] = -1.53
6. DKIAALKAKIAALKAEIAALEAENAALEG [4H2883-AA] = 0.034
7. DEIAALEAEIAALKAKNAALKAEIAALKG [4H122-AA] = -1.12
8. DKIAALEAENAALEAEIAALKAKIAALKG [4H2190-AA] = -1.51
9. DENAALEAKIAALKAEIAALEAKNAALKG [4H1352-AA] = -0.752
10. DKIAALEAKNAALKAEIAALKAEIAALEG [4H2505-AA] = -1.9

1 = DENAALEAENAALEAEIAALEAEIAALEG [4H1153-AA]
2 = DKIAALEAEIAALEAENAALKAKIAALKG [4H2078-AA]
# input For the pair 1 and 2 , which member has the lower interaction score number? API: response body contains the label of the selected item.
# output 1

1 = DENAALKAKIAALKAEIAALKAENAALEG [4H1867-AA]
2 = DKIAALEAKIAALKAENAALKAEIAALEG [4H2393-AA]
# input Which value of interaction score is numerically greater: that of 1 or that of 2 ? Kindly give the label for the entry you pick.
# output 1
(1: -0.512, 2: -0.902)
